Assay: Pharmacokinetics of triptorelin in rats
Assay type: in vivo, female Sprague–Dawley rats
Settings: female, Sprague-Dawley, rat, plasma, sc, 9 ug/kg
Quantity Measured: half-life

half-life measured on CC(C)C[C@H](NC(=O)[C@@H](Cc1c[nH]c2ccccc12)NC(=O)[C@H](Cc1ccc(O)cc1)NC(=O)[C@H](CO)NC(=O)[C@H](Cc1c[nH]c2ccccc12)NC(=O)[C@H](Cc1c[nH]cn1)NC(=O)[C@@H]1CCC(=O)N1)C(=O)N[C@@H](CCCNC(=N)N)C(=O)N1CCC[C@H]1C(=O)NCC(N)=O [triptorelin, Triptorelin acetate] = 2.11 h

----------
Assay: Pharmacokinetics of triptorelin in rats
Type: in vivo, female Sprague–Dawley rats
Conditions: female, Sprague-Dawley, rat, plasma, sc, 9 ug/kg
Quantity Measured: AUC(0-t) (ng·h/mL)
Use ng·h/mL as the unit, but write only the number.

AUC(0-t) measured on CC(C)C[C@H](NC(=O)[C@@H](Cc1c[nH]c2ccccc12)NC(=O)[C@H](Cc1ccc(O)cc1)NC(=O)[C@H](CO)NC(=O)[C@H](Cc1c[nH]c2ccccc12)NC(=O)[C@H](Cc1c[nH]cn1)NC(=O)[C@@H]1CCC(=O)N1)C(=O)N[C@@H](CCCNC(=N)N)C(=O)N1CCC[C@H]1C(=O)NCC(N)=O [triptorelin, Triptorelin acetate] = 8.65

Taken from paper PMC10316739.
